# Measurement description: Plasma stability assay
# Assay type: in vitro ADME, human
# Applied conditions: human, plasma (100%, sodium citrate); 37 °C, 5 min (printed in the 30 min column); read-out: % Remaining compound, Human plasma 5 min

| Compound | remaining at 5 min, 10 μM (%) |
| --- | --- |
| CCN(CC)CCOC(=O)c1ccc(N)cc1 [Procaine, procaine] | 1.2 |
